Listed compounds paired with reported melting point

| Compound | melting point |
| --- | --- |
| CNC(=O)[C@H]1O[C@@H](n2cnc3c(NCc4cc(Cl)ccc4OCC4CCOC4)ncnc32)[C@H](O)[C@@H]1N (some centres unmarked) [Example 11] | 114 to 118 °C |
| CNC(=O)[C@H]1O[C@@H](n2cnc3c(NCc4cc(Cl)ccc4OCC4CCC4)ncnc32)[C@H](O)[C@@H]1N | 107 to 117 °C |
| CNC(=O)[C@H]1O[C@@H](n2cnc3c(NCc4cc(Cl)ccc4OCc4cccnc4)ncnc32)[C@H](O)[C@@H]1N | 200 to 218 °C |
| CNC(=O)[C@H]1O[C@@H](n2cnc3c(NCc4cc(Cl)ccc4OCc4ccns4)ncnc32)[C@H](O)[C@@H]1N | 180 to 183 °C |
| CNC(=O)[C@H]1O[C@@H](n2cnc3c(NCc4cc(Cl)ccc4OCc4ccco4)ncnc32)[C@H](O)[C@@H]1N | 187 to 192 °C |
| CNC(=O)[C@H]1O[C@@H](n2cnc3c(NCc4cc(Cl)ccc4OCC4OC(O)C(O)C(O)C4O)ncnc32)[C@H](O)[C@@H]1N (some centres unmarked) | 212 to 218 °C |
| CNC(=O)[C@H]1O[C@@H](n2cnc3c(NCc4cc(Cl)ccc4OCc4ccc5ccccc5n4)ncnc32)[C@H](O)[C@@H]1N | 130 to 134 °C |
| CNC(=O)[C@H]1O[C@@H](n2cnc3c(NCc4cc(Cl)ccc4OCc4cccc(C)c4)ncnc32)[C@H](O)[C@@H]1N | 92 to 97 °C |
| CNC(=O)[C@H]1O[C@@H](n2cnc3c(NCc4cc(Cl)ccc4OCc4cc(C)oc4C)ncnc32)[C@H](O)[C@@H]1N | 85 to 88 °C |
| CNC(=O)[C@H]1O[C@@H](n2cnc3c(NCc4cc(Cl)ccc4OCc4snnc4C)ncnc32)[C@H](O)[C@@H]1N | 107 to 110 °C |
| CNC(=O)[C@H]1O[C@@H](n2cnc3c(NCc4cc(Cl)ccc4OCc4ccc(CN(C)C)o4)ncnc32)[C@H](O)[C@@H]1N | 78 to 81 °C |
| CNC(=O)[C@H]1O[C@@H](n2cnc3c(NCc4cc(Cl)ccc4OCc4nccs4)ncnc32)[C@H](O)[C@@H]1N | 208 to 209 °C |
| CNC(=O)[C@H]1O[C@@H](n2cnc3c(NCc4cc(Cl)ccc4OCc4ccoc4)ncnc32)[C@H](O)[C@@H]1N | 93 to 97 °C |
| CNC(=O)[C@H]1O[C@@H](n2cnc3c(NCc4cc(Cl)ccc4OCc4ccc(Cl)cc4)ncnc32)[C@H](O)[C@@H]1N | 88 to 92 °C |
| CNC(=O)[C@H]1O[C@@H](n2cnc3c(NCc4cc(Cl)ccc4OCc4cc5ccccc5o4)ncnc32)[C@H](O)[C@@H]1N | 127 to 130 °C |
| CNC(=O)[C@H]1O[C@@H](n2cnc3c(NCc4cc(Cl)ccc4OCc4cccc(Cl)c4)ncnc32)[C@H](O)[C@@H]1N | 85 to 90 °C |
| CNC(=O)[C@H]1O[C@@H](n2cnc3c(NCc4cc(Cl)ccc4OCc4nc5ccccc5s4)ncnc32)[C@H](O)[C@@H]1N | 127 to 129 °C |
| CNC(=O)[C@H]1O[C@@H](n2cnc3c(NCc4cc(Cl)ccc4OCc4cccs4)ncnc32)[C@H](O)[C@@H]1N | 135 to 141 °C |
| CNC(=O)[C@H]1O[C@@H](n2cnc3c(NCc4cc(Cl)ccc4OCc4ccccc4OC)ncnc32)[C@H](O)[C@@H]1N | 102 to 123 °C |
| CNC(=O)[C@H]1O[C@@H](n2cnc3c(NCc4cc(Cl)ccc4OCC4CCOC4)ncnc32)[C@H](O)[C@@H]1N (some centres unmarked) [Example 20] | 132 to 161 °C |

src = patent US6803457B1
